Where do the numbers come from? From paper PMC5241706.

Biological target: PfProRS (Plasmodium falciparum, UniProt Q8I5R7)
Construct: B2, AA7–746 (minus 6 amino acids, or 99% of the ORF); made in house; host or cells: E. coli BL21(DE3)R3 Rosetta Oxford
Sequence (Q8I5R7 7-746): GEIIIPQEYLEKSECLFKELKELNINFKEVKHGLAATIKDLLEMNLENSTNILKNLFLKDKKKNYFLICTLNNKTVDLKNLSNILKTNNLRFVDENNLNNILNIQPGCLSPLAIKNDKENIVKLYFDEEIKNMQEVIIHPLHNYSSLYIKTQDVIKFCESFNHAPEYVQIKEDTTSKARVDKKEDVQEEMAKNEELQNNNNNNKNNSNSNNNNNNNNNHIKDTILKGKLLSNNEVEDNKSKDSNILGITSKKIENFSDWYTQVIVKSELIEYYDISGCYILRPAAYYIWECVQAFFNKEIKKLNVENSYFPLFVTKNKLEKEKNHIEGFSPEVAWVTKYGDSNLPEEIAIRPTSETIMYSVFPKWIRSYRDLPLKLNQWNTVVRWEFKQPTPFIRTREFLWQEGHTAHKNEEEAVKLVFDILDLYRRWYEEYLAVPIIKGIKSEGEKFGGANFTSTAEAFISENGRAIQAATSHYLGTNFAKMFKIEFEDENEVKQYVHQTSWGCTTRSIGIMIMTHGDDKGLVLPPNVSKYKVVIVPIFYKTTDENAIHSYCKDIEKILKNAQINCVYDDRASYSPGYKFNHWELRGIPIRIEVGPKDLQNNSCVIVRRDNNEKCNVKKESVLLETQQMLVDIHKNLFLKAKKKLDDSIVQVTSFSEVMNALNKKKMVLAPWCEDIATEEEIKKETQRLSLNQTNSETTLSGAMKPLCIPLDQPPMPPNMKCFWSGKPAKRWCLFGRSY
Assay: biochemical
Format: biochemical
Conditions: read-out: Pf ProRS IC50
pIC50: −log10 of the molar value.
Classification field: enter fulfilled for pIC50 values not below 5, not fulfilled for values below it.

- compound: "Cn1nc(C(F)(F)F)c(-c2ccc(F)cc2)c1NC(=O)Nc1ccc(F)cc1F [Compound 3]"
  assigned class: "fulfilled"
- compound: "O=C(Nc1ccc(F)cc1)Nc1c(-c2ccc(F)cc2)c(C(F)(F)F)nn1CCO [Compound 8]"
  assigned class: "not fulfilled"
- compound: "Cn1nc(C(F)(F)F)cc1NC(=O)Nc1ccc(F)cc1 [Compound 10]"
  assigned class: "not fulfilled"
- compound: "Cn1nc(C(N)=O)c(-c2ccc(F)cc2)c1NC(=O)Nc1ccc(F)cc1 [Compound 20]"
  assigned class: "not fulfilled"
- compound: "Cn1nc(C(F)(F)F)c(-c2cccc(CNS(C)(=O)=O)c2)c1NC(=O)Nc1ccc(F)cc1 [Compound 16]"
  assigned class: "not fulfilled"
- compound: "Cn1nc(CCO)c(-c2ccc(F)cc2)c1NC(=O)Nc1ccc(F)cc1 [Compound 19]"
  assigned class: "not fulfilled"
- compound: "Cn1nc(C(F)(F)F)c(-c2ccc(F)cc2)c1NC(=O)Nc1ccc(F)cc1 [TCMDC-124506]"
  assigned class: "fulfilled"
- compound: "COc1ccc(NC(=O)Nc2c(-c3ccc(F)cc3)c(C(F)(F)F)nn2C)cc1 [Compound 5]"
  assigned class: "not fulfilled"
- compound: "Cn1nc(CC#N)c(-c2ccc(F)cc2)c1NC(=O)Nc1ccc(F)cc1 [Compound 23]"
  assigned class: "fulfilled"
